Exercise: state measured koff for each of the binders provided.
target-system: T1, recombinant Plasmodium falciparum circumsporozoite protein (CSP) (Plasmodium falciparum, UniProt Q7K740 21-375)
T1 construct: also called recombinant CSP
T1 sequence (Q7K740 21-375 limits assumed): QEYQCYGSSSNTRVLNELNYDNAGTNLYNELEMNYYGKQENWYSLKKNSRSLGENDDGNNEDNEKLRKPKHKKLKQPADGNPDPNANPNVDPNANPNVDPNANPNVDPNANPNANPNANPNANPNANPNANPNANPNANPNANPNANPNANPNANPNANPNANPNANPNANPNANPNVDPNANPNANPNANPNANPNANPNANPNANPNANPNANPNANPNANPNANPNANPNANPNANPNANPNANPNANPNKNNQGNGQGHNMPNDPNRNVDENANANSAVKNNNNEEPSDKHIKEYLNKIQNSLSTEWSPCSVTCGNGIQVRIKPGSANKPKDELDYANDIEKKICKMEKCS
procedure-details: SPR, recombinant CSP
Give the quantity in s⁻¹, number only.

Short answer for AB001529 (antibody, V domains shown) VH: QVQLVESGGGVVQPGRSLRLSCVASGFSFRSYGMHWVRQAPGKGLEWVAIIWYDGSNKYYAHSVKGRFTISRDNSKNTLYLQMNSLRAEDTAIYYCAKDGGTETTWGNAFDIWGQGTMVTVSS VL: DIQMTQSPSTLSASVGDRVTITCRASQSISSWLAWYQQKPGKAPKLLIYKASSLESGVPSRFSGSGSGTEFTLTINNLQPDDFATYYCQQYNSYWTFGQGTKVEIK : koff was 0.00108

# binder AB001458 (antibody, V domains shown) VH: EVQLVESGGGLVQPGRSLRLSCTASGFTFGDYAMSWFRQAPGKGLEWVSFIRSKTYGGSTEYAASVKGRFTISRDDSKSIAYLQMHSLKTEDTAFYYCTRVSAAAGVGDYWGQGTLVTVSS VL: EIVMTQSPATLSVSPGERATLSCRASQSVGSNLAWYQQKPGQAPRLLIYGASTRATGLPARFSGSGSATEFTLTISSLQSEDFAVYYCQQYNTWWTFGQGTKVEIK ; its koff = 0.00171
